- test-parameters: cynomolgus monkey, in vivo, sc, 40 mg/kg
Listing of recorded ALT by entry.
Your answer is read as IU/L, so omit the unit and give the number.

| polymer-sequence | value-type | endpoint-unit | reported-value |
| --- | --- | --- | --- |
| TTGATTTAATGGTTGC [ISIS 560131] (MOE and (S)-cEt gapmer chemistry, further chemistry not given here) | ALT | IU/L | 68 |
| TGATTTAATGGTTGCA [ISIS 569236] (cEt/MOE gapmer chemistry, further chemistry not given here) | ALT | IU/L | 35 |

Okay, now this sequence:
Input line: Fill blank: measured ALT of the sequence TTGATTTAATGGTTGC [ISIS 579671] (cEt/MOE gapmer chemistry, further chemistry not given here) is ____.
Output line: 56
